# key: entry, value: pIC50
Tested on: pAKT(S473) in H358 cell line
assay_comment: In vitro Phospho-AKT(S473) HTRF analysis in H358 cells
Format: cell-based
test_parameters: Homo sapiens, NCI-H358, 0.5 h; H358 cells, 30 minutes at 37° C.
pIC50: −log10 of the molar value.
reported_property: pIC50

[[record]]
molecule = "C[C@H](/C=C\\S(C)(=O)=O)NC(=O)[C@@]1(F)CCCN(C(=O)[C@H]2CN(CC(F)(F)F)C[C@H]2c2ccccc2Cl)CC1"
recorded_measurement = 6.94

[[record]]
molecule = "C[C@H](/C=C\\S(C)(=O)=O)NC(=O)[C@]1(F)CCN(C(=O)[C@H]2CN(CC(F)(F)F)C[C@H]2c2ccccc2Cl)[C@@H](C)C1 (single isomer, unassigned)"
recorded_measurement = 6.33

[[record]]
molecule = "C[C@H](/C=C\\S(C)(=O)=O)NC(=O)[C@@]1(F)CCCN(C(=O)[C@H]2CN(CC(F)F)C[C@H]2c2ccccc2Cl)CC1"
recorded_measurement = 6.99

[[record]]
molecule = "C[C@H](/C=C\\S(C)(=O)=O)NC(=O)[C@@]1(F)CCCN(C(=O)[C@H]2CN(CC3(F)CC3)C[C@H]2c2ccccc2Cl)CC1"
recorded_measurement = 6.91

[[record]]
molecule = "C[C@H](/C=C\\S(C)(=O)=O)NC(=O)[C@@]1(F)CCCN(C(=O)[C@H]2CN(CC(C)(F)F)C[C@H]2c2c(F)cccc2Cl)CC1 (single isomer, unassigned)"
recorded_measurement = 7.25

[[record]]
molecule = "C[C@H](/C=C\\S(C)(=O)=O)NC(=O)[C@@]1(F)CCCN(C(=O)[C@H]2CN(CC3(F)CC3)C[C@H]2c2c(F)cccc2Cl)CC1 (single isomer, unassigned)"
recorded_measurement = 7.19

[[record]]
molecule = "C[C@H](/C=C\\S(C)(=O)=O)NC(=O)[C@@]1(F)CCCN(C(=O)[C@H]2CN(CC(F)(F)F)CC[C@@H]2c2ccccc2Cl)CC1 (single isomer, unassigned)"
recorded_measurement = 6.39


* * *

Below, each entry is listed alongside its reported IC50.
experimental_target: PIK3CA (Homo sapiens)
Construct: endogenous in cells
Sequence (P42336 whole entry): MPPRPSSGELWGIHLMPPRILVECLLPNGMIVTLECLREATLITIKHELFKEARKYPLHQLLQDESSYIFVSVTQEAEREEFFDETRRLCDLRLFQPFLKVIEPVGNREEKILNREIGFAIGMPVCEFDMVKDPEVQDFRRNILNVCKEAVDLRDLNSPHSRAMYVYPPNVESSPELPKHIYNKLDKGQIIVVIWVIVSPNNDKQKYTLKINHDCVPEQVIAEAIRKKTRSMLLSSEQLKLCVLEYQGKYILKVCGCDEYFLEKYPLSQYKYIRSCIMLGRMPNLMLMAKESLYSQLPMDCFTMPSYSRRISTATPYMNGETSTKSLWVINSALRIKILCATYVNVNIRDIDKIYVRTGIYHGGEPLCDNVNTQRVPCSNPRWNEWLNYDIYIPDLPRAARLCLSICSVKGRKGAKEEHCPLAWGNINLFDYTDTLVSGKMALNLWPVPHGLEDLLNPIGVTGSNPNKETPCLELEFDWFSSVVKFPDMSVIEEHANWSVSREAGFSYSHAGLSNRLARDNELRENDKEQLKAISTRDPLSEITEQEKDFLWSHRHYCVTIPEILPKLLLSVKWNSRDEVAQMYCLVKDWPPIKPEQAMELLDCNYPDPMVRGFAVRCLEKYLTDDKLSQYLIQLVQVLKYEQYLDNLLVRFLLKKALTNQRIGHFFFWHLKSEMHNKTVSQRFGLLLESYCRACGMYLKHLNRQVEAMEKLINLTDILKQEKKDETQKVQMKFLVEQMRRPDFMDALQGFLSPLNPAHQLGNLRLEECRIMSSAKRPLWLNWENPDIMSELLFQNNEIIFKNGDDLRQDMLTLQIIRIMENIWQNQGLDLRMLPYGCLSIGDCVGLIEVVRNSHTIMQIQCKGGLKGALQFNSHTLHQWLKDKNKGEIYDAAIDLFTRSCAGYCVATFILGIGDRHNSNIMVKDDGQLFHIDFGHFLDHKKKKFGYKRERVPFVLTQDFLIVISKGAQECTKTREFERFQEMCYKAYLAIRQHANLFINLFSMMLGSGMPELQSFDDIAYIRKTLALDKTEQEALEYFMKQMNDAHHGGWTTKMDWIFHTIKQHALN
Sequence (P27986 whole entry partner): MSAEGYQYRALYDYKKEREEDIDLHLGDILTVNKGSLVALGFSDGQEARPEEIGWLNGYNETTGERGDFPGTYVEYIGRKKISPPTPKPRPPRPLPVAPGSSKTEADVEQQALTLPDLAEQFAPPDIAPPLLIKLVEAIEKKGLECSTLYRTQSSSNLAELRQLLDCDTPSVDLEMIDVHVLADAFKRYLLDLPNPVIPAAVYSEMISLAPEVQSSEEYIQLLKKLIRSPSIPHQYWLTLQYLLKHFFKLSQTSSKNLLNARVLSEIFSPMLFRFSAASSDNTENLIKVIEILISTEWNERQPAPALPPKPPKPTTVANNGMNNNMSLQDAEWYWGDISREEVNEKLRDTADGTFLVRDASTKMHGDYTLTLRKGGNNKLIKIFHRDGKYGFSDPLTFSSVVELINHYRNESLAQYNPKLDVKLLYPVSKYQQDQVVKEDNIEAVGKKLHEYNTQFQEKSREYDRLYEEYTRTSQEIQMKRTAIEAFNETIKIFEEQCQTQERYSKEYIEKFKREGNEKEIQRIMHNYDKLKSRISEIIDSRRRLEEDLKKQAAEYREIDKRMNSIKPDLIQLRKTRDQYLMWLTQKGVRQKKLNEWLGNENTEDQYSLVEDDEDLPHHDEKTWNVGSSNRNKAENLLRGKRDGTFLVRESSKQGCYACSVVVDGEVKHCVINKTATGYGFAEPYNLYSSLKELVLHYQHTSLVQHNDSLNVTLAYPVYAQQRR
assay_comment: In vitro ELISA target engagement assay for PIK3CA in Jurkat cellular lysate (competition with PIK3CA Biotin Probe)
test_parameters: 1 hour at rt, then 500 nM PIK3CA Biotin Probe, read-out: Elisa Target Engagement Assay (TE50)
reported_property: IC50

[[record]]
compound = "C[C@H](/C=C\\S(C)(=O)=O)NC(=O)C1(F)CCN(S(=O)(=O)c2ccc(C3COC3)cc2-c2ccccc2Cl)CC1"
reported_property = "IC50"
recorded_measurement = "524 nM"

[[record]]
compound = "Cc1ccc(Cl)c([C@@H]2CN(CC(F)(F)F)C[C@@H]2C(=O)N2CCC[C@](F)(C(=O)N[C@H](C)/C=C\\S(C)(=O)=O)CC2)c1 (single isomer, unassigned)"
reported_property = "IC50"
recorded_measurement = "760 nM"

[[record]]
compound = "O=C(/C=C\\CNC(=O)C1(F)CCN(S(=O)(=O)c2ccc(Br)cc2-c2ccccc2Cl)CC1)N1CCC1"
reported_property = "IC50"
recorded_measurement = "640 nM"

[[record]]
compound = "Cc1ccccc1-c1cc(N2CCC2)ccc1S(=O)(=O)N1CCC(F)(C(=O)N[C@H](C)/C=C\\S(C)(=O)=O)CC1"
reported_property = "IC50"
recorded_measurement = "340 nM"

[[record]]
compound = "C[C@H]1C[C@](F)(C(=O)N[C@@H]2C=CS(=O)(=O)C2)CCN1C(=O)[C@H]1CN(CC(C)(F)F)C[C@H]1c1ccccc1Cl (single isomer, unassigned)"
reported_property = "IC50"
recorded_measurement = "210 nM"

[[record]]
compound = "C[C@H](/C=C/C(=O)N1CC(F)(F)C1)NC(=O)[C@]1(F)CCN(S(=O)(=O)c2ccc(Br)cc2-c2ccccc2Cl)[C@H](C)C1"
reported_property = "IC50"
recorded_measurement = "183 nM"

[[record]]
compound = "COc1ccc(S(=O)(=O)N2CC[C@@](F)(C(=O)NC/C=C\\C(=O)N3CC(F)(F)C3)C[C@H]2C)c(-c2ccccc2Cl)c1"
reported_property = "IC50"
recorded_measurement = "490 nM"

[[record]]
compound = "CC[C@@H](/C=C/S(=O)(=O)C1CNC1)NC(=O)C1(F)CCN(S(=O)(=O)c2ccc(Br)cc2-c2ccccc2Cl)CC1"
reported_property = "IC50"
recorded_measurement = "461 nM"

[[record]]
compound = "C[C@H](/C=C\\S(C)(=O)=O)NC(=O)[C@]1(F)CCN(S(=O)(=O)c2ccc(C#N)cc2-c2ccccc2Cl)[C@H](C)C1"
reported_property = "IC50"
recorded_measurement = "55 nM"

[[record]]
compound = "C=C(C)c1ccc(S(=O)(=O)N2CCC(F)(C(=O)N[C@H](C)/C=C\\S(C)(=O)=O)CC2)c(-c2ccccc2C)c1"
reported_property = "IC50"
recorded_measurement = "830 nM"

[[record]]
compound = "COc1ccc(S(=O)(=O)N2CCC(F)(C(=O)N[C@H](C)/C=C\\S(C)(=O)=O)CC2)c(-c2cccc(F)c2Cl)c1"
reported_property = "IC50"
recorded_measurement = "384 nM"

[[record]]
compound = "COc1cccc(-c2cc(Cl)ccc2S(=O)(=O)N2CCC(C)(C(=O)N[C@@H](C)/C=C\\S(C)(=O)=O)CC2)c1"
reported_property = "IC50"
recorded_measurement = "350 nM"


These data points were gathered from patent US20250026721A1.
